Data provenance: paper PMC9352680

Target: T1, PUF4 RNA-binding domain (Saccharomyces cerevisiae, UniProt P25339 537-888)
T1 sequence: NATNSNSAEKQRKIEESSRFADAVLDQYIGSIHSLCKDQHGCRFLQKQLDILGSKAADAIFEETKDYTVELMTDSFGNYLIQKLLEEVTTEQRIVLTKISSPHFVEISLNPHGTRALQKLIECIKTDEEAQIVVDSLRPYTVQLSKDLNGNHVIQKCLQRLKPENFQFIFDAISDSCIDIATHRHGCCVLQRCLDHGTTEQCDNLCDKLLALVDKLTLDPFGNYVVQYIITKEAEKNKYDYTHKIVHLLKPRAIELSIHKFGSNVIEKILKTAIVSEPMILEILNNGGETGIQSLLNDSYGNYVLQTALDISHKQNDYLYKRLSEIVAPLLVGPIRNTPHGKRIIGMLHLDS
Assay: Mg; RNA-MaP; 20 mM Na-HEPES pH 7.4, 30 mM KOAc, 0.75 mM MgCl2, 0.1% Tween-20, 5% glycerol, 0.1 mg/mL BSA, 2 mM DTT; 25 C; 0.0125-409.6 nM protein
Conditions: tags: N-His6-TEV cleaved; C-SNAP kept, Cy3B-labelled; label: tethered on chip by stalled RNA polymerase
Consider the cut-off 30 nM. If the recorded Kd is strictly smaller, the label is Met; if not, the label is Not met.

binder: Id_i_S4_P3E.2_K3.1_C3.2_[C-2T]_[T-1C]_H3.1_A3.1_F3.1_T3.2 (ssRNA) RNA: UUUGACAACUGAUCGUUCUUUCUUCUGUAUAUAUAUUCUUUCUCGAUCAGUUGUCUUU
class-assignment: Met

binder: UCUCUUUGUACUCUUAUCUCUU (ssRNA) [Ib_S1_P5E.1_K5.1_C5.1_H5.1_A5.1_[T5C]_[A7C]_F5.1_T5.1]
class-assignment: Met

binder: UCUCUUAGUAUUAUUUUCUCUU (ssRNA) [Ib_S1_P5E.1_K5.1_C5.1_H5.1_[T1A]_A5.1_F5.1_[A10T]_T5.1]
class-assignment: Not met

Q: Given the entry Id_ii_S2_P4E.4_K4.3_C4.2_[C-2A]_[T-1A]_H4.3_A4.1_F4.1_T4.2_[G10T]_[T11C] (ssRNA) RNA: UUUGAUUAAUAUGAUAUCGUUCUUUCUAAACACUAUUAUCUUCUUUCUCGAUAUCAUAUUAAUCUUU , would its reported Kd be below 30 nM?
Result: Not met

Q: Ok, now Ic_S2_P5E.1_K5.1_C5.1_H5.1_A5.1_[T5C]_[T6G]_[A7C]_F5.1_[T8G]_[T9C]_[A10C]_T5.1 (ssRNA) RNA: UUUGAUUAAUAUGAUAUCGUUCUUUCUUGUACGCGCCUUCUUUCUCGAUAUCAUAUUAAUCUUU
Result: Not met
